Taken from ChEMBL document CHEMBL1201862.

System: TK-10
experimental.protocol: NCI tumour cell line growth inhibition, 48 h
Active and inactive are the calls of the source. No stated cut-off is given here; in the data, active = GI50 up to about 1.1 µM and inactive = higher.
Please go through the items and note down their GI50.

Check out these entries, answers already filled in.
- C/C(CCn1[nH]c(=O)ccc1=O)=N\Nc1ccc([N+](=O)[O-])cc1[N+](=O)[O-]: > 100 µM (inactive)
- CSc1nc2c(c(O)c(C)c(=O)n2C2OC(COC(C)=O)C(OC(C)=O)C(OC(C)=O)C2OC(C)=O)c(=O)n1C (stereo not given): > 100 µM (inactive)

Please give GI50 for each item listed below.
1. C=C1CC2(C)CCC(OC(=O)C3(C)OC3C)C(C)(OC(C)=O)C2CC1=C(C)C (stereo not given)
2. O=c1oc2ccc3ccccc3c2cc1-c1cn2c(n1)sc1ccccc12
3. COc1cc(OC)cc(OCc2nc3cc(C(F)(F)F)ccc3nc2-c2ccccc2)c1
4. Nc1nc2ncn(CCO)c2c(=S)[nH]1
5. C=C1C(=O)OC2C[C@@]3(C)CCCC(=C)C3CC12 (stereo not given in full)

1. > 100 µM (inactive)
2. > 100 µM (inactive)
3. > 100 µM (inactive)
4. > 100 µM (inactive)
5. 11.4 µM (inactive)

====

System: IGROV-1
experimental.protocol: NCI tumour cell line growth inhibition, 48 h
Activity calls are given as the source filed them. Rule as the data show it: active = GI50 up to about 1.1 µM and inactive = higher.
test.readout: GI50

Check out these entries, answers already filled in.
• CC(=O)Nc1ccc(NNc2cc(=O)n(C)c(=O)[nH]2)cc1 = 14 µM (inactive)
• CN(C)c1ccc(/C=C(\NC(=O)c2ccccc2)c2nn(C)c(=O)o2)cc1 = 58.6 µM (inactive)
• CCOC(=O)C(=O)Nc1ccc(C)c(C)c1 = > 100 µM (inactive)
• O=C1C=CC(CC(=O)c2ccc3ccccc3c2)O1 (stereo unspecified) = 29.2 µM (inactive)
• CN(C)CCCNC(=O)c1cc(NC(=O)c2cc(NC(=O)c3cc(NC(=O)CCCn4ccc(CO)c4CO)cn3C)cn2C)cn1C = 3.2 µM (inactive)

Please give GI50 for each item listed below.
1. N=c1c2ccccc2nc2oc3ccccc3n12
2. CC(C)C(=O)Nc1nc2[nH]cnc2c(=O)[nH]1

1. 20.6 µM (inactive)
2. > 100 µM (inactive)

Please give GI50 for each item listed below.
1. COc1ccc2c(c1)-c1c(c3ccccc3n1CCN1CCOCC1)CC2
2. COC(=O)c1ccc(NC(=O)c2cc3c(cc2Br)OCO3)o1

5.47 µM (inactive)
> 100 µM (inactive)

Please give GI50 for each item listed below.
1. CC(=O)CC(=O)CCCC(=O)Nc1ccc(Cl)cc1Cl
2. O=C1c2ccccc2C(=O)c2sc(Nc3ccc(Cl)c(Cl)c3)nc21

> 100 µM (inactive)
3.82 µM (inactive)

====

System: HCC 2998
experimental.protocol: NCI tumour cell line growth inhibition, 48 h
The source made the active and inactive calls. No stated cut-off is given here; in the data, active = GI50 up to about 1.1 µM and inactive = higher.
I would appreciate it if you answered using one of these outcomes: yes (1) (active), no (0) (inactive)

* COc1cccc(/C=C2\CCC(CN(C)C)C2=O)c1 (centres undefined) | no (0)
* O=c1c2cc(O)c(O)cc2oc2cc(O)c(C3OC(CO)C(O)C(O)C3O)c(O)c12 (centres undefined) | no (0)
* COc1ccc(-c2cc(O)c3c(C)ccnc3n2)cc1 | no (0)
* O=C1c2cccc3c(Cl)ccc(c23)C(=O)N1CCCN1CCN(CCCN2C(=O)c3cccc4c(Cl)ccc(c34)C2=O)CC1 | no (0)
* CC1(c2nc3cc(Cl)c(Cl)cc3[nH]2)CCC(C(=O)O)C(C)(C)O1 (centres undefined) | no (0)
* CN(C)CCNC(=O)c1cccc2ncc(-c3ccccc3)nc12 | no (0)
* COc1cc2cc(C(=O)N3CC(COS(C)(=O)=O)c4c3cc([N+](=O)[O-])c3ccccc43)[nH]c2c(OC)c1OC (centres undefined) | yes (1)
* CC1(C)CCC[C@](C)([C@H]2CC[C@]3(C)[C@@H]2[C@H](O)C[C@@H]2[C@@]4(C)CC[C@H](O)C(C)(C)[C@@H]4[C@H](O)C[C@]23C)O1 | no (0)
* CCN(CC)C1CC(n2cc(C)c(=O)[nH]c2=O)OC1CO (centres undefined) | no (0)
* COc1ccccc1/C=C1\CCC(Cc2ccccc2)(CN(C)C)C1=O (centres undefined) | no (0)

Can you look up the reported call for O=C(O)COc1ccc(C(=O)/C(SS/C(C(=O)c2ccc(OCC(=O)O)c(Cl)c2Cl)=C2\C=C(c3ccc(Cl)cc3)SS2)=C2/C=C(c3ccc(Cl)cc3)SS2)c(Cl)c1Cl for me? no (0)

Can you look up the reported call for O=C1c2cccc(O)c2C(=O)c2c(O)cc(CO)cc21 [ALOE-EMODIN] for me? no (0)

Can you look up the reported call for O=C1c2ccccc2C(=O)c2sc(Nc3ccc(Cl)c(Cl)c3)nc21 for me? no (0)

Can you look up the reported call for Cn1cnc2c(NCc3ccccc3)nc(NCCO)nc21 [OLOMOUCINE] for me? no (0)

Can you look up the reported call for CN(C)CCOC1(CC2CCCCC2)CCC(C(C)(C)C)CC1 (centres undefined) for me? no (0)

Can you look up the reported call for O=P(O)(O)C(N=C(Nc1ccccc1)Nc1ccccc1)P(=O)(O)O for me? no (0)

Can you look up the reported call for Cc1ccc(/N=C2\SC(=NN(C)C)S\C2=N/c2ccc(C)cc2)cc1 for me? no (0)

Can you look up the reported call for CN(C)C(=S)Oc1ccc2ccc(=O)oc2c1 for me? no (0)

Can you look up the reported call for O=C(NN1C(=O)c2ccccc2C1=O)c1ccccc1Nc1ccccc1C(=O)NN1C(=O)c2ccccc2C1=O for me? no (0)

====

Tested on: NCI-H23
experimental.protocol: NCI tumour cell line growth inhibition, 48 h
Calls of active or inactive are those of the source. Rule as the data show it: active = GI50 up to about 1.1 µM and inactive = higher.
I would appreciate it if you answered using one of these outcomes: 1 (active), 0 (inactive)

• O=C(Nc1nc2ccc([N+](=O)[O-])cc2s1)C(=O)C(C(=O)c1ccncc1)C1OC(=O)c2ccccc21 (stereo not drawn) = 0
• Cc1ccc(S(=O)(=O)n2cc(C=O)c(-c3cn(S(=O)(=O)c4ccc(C)cc4)cc3-c3cn(S(=O)(=O)c4ccc(C)cc4)cc3C=O)c2)cc1 = 0
• O=C1C=CC(=O)C2C1Cc1ccccc1C2c1ccccc1 (stereo not drawn) = 0
• O=c1oc2ccc3ccccc3c2cc1-c1cn2c(n1)sc1ccccc12 = 0
• COC1CC(N)C(O)C(C)O1 (stereo not drawn) = 0

Can you look up the reported call for CC1(C)COC(c2cccc(C3=NC(C)(C)CO3)c2Br)=N1 for me? 0

Can you look up the reported call for CN(C)CCOC1(CC2CCCCC2)CCC(C(C)(C)C)CC1 (stereo not drawn) for me? 0

Can you look up the reported call for CN1CC(=O)N(C)c2[nH]cnc2C1=O for me? 0

Can you look up the reported call for CCOC(=O)CCN1C(=O)c2c(NC(=O)C(=O)O)cccc2S1(=O)=O for me? 0

Can you look up the reported call for C=CCSC1=N/C(=C\c2ccc(Cl)cc2)C(=O)N1CC=C for me? 0

Can you look up the reported call for O=C(O)COc1ccc(C(=O)/C(SS/C(C(=O)c2ccc(OCC(=O)O)c(Cl)c2Cl)=C2\C=C(c3ccc(Cl)cc3)SS2)=C2/C=C(c3ccc(Cl)cc3)SS2)c(Cl)c1Cl for me? 0

Can you look up the reported call for CC(=O)OC1COC(N2c3ccccc3[C@@H]3CCc4c([nH]c5ccccc45)[C@@H]32)C(OC(C)=O)C1OC(C)=O.CC(=O)OC1COC(N2c3ccccc3[C@H]3CCc4c([nH]c5ccccc45)[C@H]32)C(OC(C)=O)C1OC(C)=O (stereo partly drawn) for me? 0

Can you look up the reported call for O=C(/C=C/c1ccccc1O)c1cccc2ccccc12 for me? 0

Can you look up the reported call for COc1cc([C@@H]2OC(=O)C3C2C(=O)O[C@H]3c2cc(OC)c(OC)c(OC)c2)cc(OC)c1OC (stereo partly drawn) for me? 0

Can you look up the reported call for COC(=O)c1ccc(O)c2nc3c(C=O)c(O)cc(O)c3nc12 [LOMOFUNGIN] for me? 1

Can you look up the reported call for C=CCOCCCCC(C(C)=O)C(=O)OC (stereo not drawn) for me? 0

Can you look up the reported call for O=C1OC2(c3ccccc3Oc3ccccc32)c2ccccc21 for me? 0

Can you look up the reported call for Cc1cc(Cc2cc(C)c(NC(=O)C(=O)C3CCC4=C(SC5C=CC=CC5N4)C3=O)c(C(C)C)c2)cc(C(C)C)c1NC(=O)C(=O)C1CCC2=C(SC3C=CC=CC3N2)C1=O (stereo not drawn) for me? 0

====

System: DMS-273
experimental.protocol: NCI tumour cell line growth inhibition, 48 h
Calls of active or inactive are those of the source. Rule as the data show it: active = GI50 up to about 1.1 µM and inactive = higher.
I would appreciate it if you answered using one of these outcomes: 1 (active), -1 (inactive)

Sample answers from the record:
* CCN(CC)CCCCC1CCN(CC(=O)N2CC(C)C(=O)Nc3ccccc32)CC1 (centres undefined) | -1
* COC1C(CO)OC(n2c3c(Cl)cccc3c3c4c(c5c6cccc(Cl)c6[nH]c5c32)C(=O)NC4=O)C(O)C1O (centres undefined) | 1
* Clc1ccccc1C(n1cc(Br)cn1)n1cc(Br)cn1 | -1
* CC1(C=O)C(=O)CCC2(C)C3CC(=O)OC3CCC12 (centres undefined) | -1
* O=C1[C@@H](c2ccc(Cl)cc2)[C@H]2CC=C[C@H]2N1O | -1

Can you look up the reported call for c1ccncc1 for me? -1

Can you look up the reported call for CC1=C(C(=O)Nc2ccccc2C)C(c2ccc(C3C(C(=O)Nc4ccccc4C)=CNC=C3C(=O)Nc3ccccc3C)cc2)C(C(=O)Nc2ccccc2C)=C(C)N1 for me? -1

Can you look up the reported call for COc1cccc(/C=C2\CCC(CN(C)C)C2=O)c1 (centres undefined) for me? -1

Can you look up the reported call for O=C1c2ccccc2C(=O)c2sc(Nc3ccc(Cl)c(Cl)c3)nc21 for me? -1
